- Organism: Rattus norvegicus
- testDescription: Open TG-GATES - Regimen: Daily Repeat
- Format: toxicity, organism-based, Sprague-Dawley
- Design: regimen Daily Repeat, gender Male, age 6 weeks
- recordedConditions: in vivo, po, 1000 mg/kg, […], tissue Plasma, route gavage, dose level High, time 28 day
measurementName: GLC

[
  {
    "compound": "CC(=O)[C@@]1(O)CC[C@H]2[C@@H]3C=C(Cl)C4=CC(=O)CC[C@]4(C)[C@H]3CC[C@@]21C [CHLORMADINONE]",
    "measurementName": "GLC",
    "reported": "194.8 mg/dL"
  }
]

Hello, I would appreciate it if you could give GLC for each entry below.
1. CC(S)C(=O)NCC(=O)O (centres undefined) [TIOPRONIN]
2. CCCCNC(=O)NS(=O)(=O)c1ccc(C)cc1 [TOLBUTAMIDE]
3. O=C(O)c1ccccc1Nc1ccccc1 [FENAMIC ACID]

[reply]
1: 180 mg/dL; 2: 203.2 mg/dL; 3: 182.5 mg/dL

----------
- Species on record: Rattus norvegicus
- testDescription: Open TG-GATES - Regimen: Daily Repeat
- Assay type: toxicity, organism-based, Sprague-Dawley
- Parameters: regimen Daily Repeat, gender Male, age 6 weeks
- recordedConditions: in vivo, po, 0 mg/kg, 72 h, tissue Kidney, route gavage, dose level Control, time 3 day
I'd be grateful if you could share measured KIDNEY_R for these entries.
Answers are plain numbers, in g.

Sample answers from the record:
[
  {
    "compound": "CC(=O)[C@@]1(O)CC[C@H]2[C@@H]3C=C(Cl)C4=CC(=O)CC[C@]4(C)[C@H]3CC[C@@]21C [CHLORMADINONE]",
    "reported": 1
  },
  {
    "compound": "CCCCNC(=O)NS(=O)(=O)c1ccc(C)cc1 [TOLBUTAMIDE]",
    "reported": 1
  },
  {
    "compound": "CCCCC1C(=O)N(c2ccccc2)N(c2ccccc2)C1=O [PHENYLBUTAZONE]",
    "reported": 1.1
  },
  {
    "compound": "Nc1ccc(Cc2ccc(N)cc2)cc1",
    "reported": 1
  },
  {
    "compound": "CCO [ALCOHOL]",
    "reported": 1
  }
]

Give one value of KIDNEY_R per listed compound.
1. COc1ccc([C@@H]2Sc3ccccc3N(CCN(C)C)C(=O)[C@@H]2OC(C)=O)cc1 [DILTIAZEM]
2. O=c1ccc2ccccc2o1 [COUMARIN]
3. O=C(O)c1ccccc1Nc1ccccc1 [FENAMIC ACID]

[reply]
1: 1; 2: 0.9; 3: 1

// for each compound below, give its KIDNEY_R
1. CN(C/C=C/C#CC(C)(C)C)Cc1cccc2ccccc12 [TERBINAFINE]
2. CC(S)C(=O)NCC(=O)O (stereo not given) [TIOPRONIN]

[reply]
1.1
1

----------
- Species on record: Rattus norvegicus
- testDescription: Open TG-GATES - Regimen: Daily Repeat
- Format: toxicity, organism-based, Sprague-Dawley
- Parameters: regimen Daily Repeat, gender Male, age 6 weeks
- recordedConditions: in vivo, po, 1000 mg/kg, […], tissue Plasma, route gavage, dose level High, time 7 day
Task for the reader: assign each of the following molecules its reported IP.
Answers are plain numbers, in mg/dL.

Recorded IP, per entry:
[
  {
    "molecule": "CCCCNC(=O)NS(=O)(=O)c1ccc(C)cc1 [TOLBUTAMIDE]",
    "IP [mg/dL]": 7.7
  },
  {
    "molecule": "CC(=O)[C@@]1(O)CC[C@H]2[C@@H]3C=C(Cl)C4=CC(=O)CC[C@]4(C)[C@H]3CC[C@@]21C",
    "IP [mg/dL]": 7.2
  },
  {
    "molecule": "O=C(O)c1ccccc1Nc1ccccc1",
    "IP [mg/dL]": 6.3
  }
]

From here, focus on the item given below.
[ask] Sample CC(S)C(=O)NCC(=O)O (centres undefined) — what was its IP?
[reply] 7.9
